Where do these numbers come from? They come from ChEMBL document CHEMBL1135126.

test system: Cryptococcus neoformans; test: Concentration that substantially inhibit the growth of Cryptococcus neoformans; format: functional
Below: a set of entries, each annotated with reported MIC.
Reply numerically in µM, unit not repeated.

{"chemical-string": "CC[C@H](C)[C@H](NC(=O)[C@@H](Cc1ccccc1)NC(=O)[C@@H](Cc1c[nH]c2ccccc12)NC(=O)[C@@H](N)CCCN=C(N)N)C(=O)N[C@H](Cc1ccccc1)C(=O)N[C@@H](Cc1c[nH]cn1)C(=O)N[C@@H](CCCCN)C(=O)N[C@@H](CCCN=C(N)N)C(=O)N[C@@H](CCCCN)C(N)=O", "MIC (µM)": 2.36}

Problem: What MIC appears in the records for this molecule with Cryptococcus neoformans? CC[C@H](C)[C@H](NC(=O)[C@@H](Cc1ccccc1)NC(=O)[C@@H](Cc1c[nH]c2ccccc12)NC(=O)[C@@H](N)CCCN=C(N)N)C(=O)N[C@H](Cc1ccccc1)C(=O)N[C@@H](Cc1c[nH]cn1)C(=O)N[C@@H](CCCCN)C(=O)N[C@@H](CCCCN)C(=O)N[C@@H](CC(=O)O)C(N)=O
Result: 4.8
